# TEST NAME: Stat Signaling Pathway (AID 446);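 further: ME-180 cervical cancer cells given 40 pM IL-6 alongside compound; SIE-controlled beta-lactamase reporter measured as 460/530 nm FRET emission ratio; on the % scale 0 is the no-effect control and ±100 the full control effect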
# MEASUREMENT PARAMETERS: ME-180 SIE beta-lactamase reporter, IL-6 stimulated, 5 h; at 17.2 µM (top of the series) unless noted
Results filed as inconclusive are left out. Calls of active or inactive are those of the source. The call rests on the fitted dose curve; in most records, active means well fitted curve in either direction with a large enough effect (not every such curve was filed as active); inconclusive means small, poorly fitted or top-dose-only effect, or another doubt; inactive means flat fitted curve, though single readings scatter.
Quick list: activity, negative = inhibition per entry.
PROPERTY NAME: activity, negative = inhibition

> print(dat)
                                    molecule                    property.name                      reported
 1  CCOC(=O)c1ccc(NC(=O)CCC(CC)C(=O)O)cc1 (stereo unspecified)  activity, negative = inhibition              3.77% (inactive)
 2  COc1ccc(NC(=O)CSC2=C(C#N)C(c3ccco3)C3=C(CCCC3=O)N2)c(OC)c1 (stereo unspecified)  activity, negative = inhibition             -8.16% (inactive)
 3         CCCCSc1nnc(-c2ccc(NC(C)=O)cc2)n1C  activity, negative = inhibition             0.987% (inactive)
 4  COc1cc(C2C3C(=O)N(c4ccc(F)cc4)C(=O)C3ON2c2ccccc2)ccc1O (stereo unspecified)  activity, negative = inhibition             -1.27% (inactive)
 5  CCOC(=O)C(c1ccccc1)N1CCN(c2ccc(OC)cc2)CC1 (stereo unspecified)  activity, negative = inhibition              4.69% (inactive)
 6  CCN(CC)CCN1C(=O)c2ccccc2NC1c1cc(OC)c(OC)c(OC)c1 (stereo unspecified)  activity, negative = inhibition              10.5% (inactive)
 7    O=C(c1ccc(=O)oc1)N1CCN(c2ccc(F)cc2)CC1  activity, negative = inhibition             -4.16% (inactive)
 8                N[C@H](Cc1ccc(F)cc1)C(=O)O  activity, negative = inhibition  -8.01% [at 38 µM] (inactive)
 9  O=C(O)C1CC(=O)N(Cc2cccs2)C1 (stereo unspecified)  activity, negative = inhibition              7.75% (inactive)
10  CC1CC(C(F)(F)F)n2ncnc2N1 (stereo unspecified)  activity, negative = inhibition              12.9% (inactive)
11  Cc1csc(SCCn2c(Br)nc3c2c(=O)[nH]c(=O)n3C)n1  activity, negative = inhibition              1.99% (inactive)

----------
# activity change, negative = inhibition per entry
# TEST NAME: AP1 Signaling Pathway (AID 357);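 further: ME-180 reporter cells stimulated with EGF at its EC50 level; on the % scale 0 is the no-effect control and ±100 the full control effect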
# MEASUREMENT PARAMETERS: ME-180 (cervical carcinoma) AP-1-bla reporter, EGF-induced, beta-lactamase ratio, 5 h; at 17.2 µM (top of the series) unless noted
Records with an inconclusive call do not appear. Active and inactive are the calls of the source. Calls come from the whole dose curve; as a rule, active = well fitted curve in either direction with a large enough effect (not every such curve was filed as active); inconclusive = small, poorly fitted or top-dose-only effect, or another doubt; inactive = flat fitted curve, though single readings scatter.
PROPERTY NAME: activity change, negative = inhibition

> print(dat)
                                    compound                       reported
 1                     COc1ccc(OC)c2c1CCC2=O               -7.3% (inactive)
 2  COc1ccc(/C(O)=C2/C(=O)C(=O)N(CCCN(C)C)C2c2ccccc2)cc1Cl (stereo unspecified)               8.68% (inactive)
 3       Cn1c(/C(C#N)=C/Nc2ccccn2)nc2ccccc21              -8.79% (inactive)
 4  CCCCN1C(=O)C(O)=C(C(C)=O)C1c1ccc(OC)cc1OC (stereo unspecified)               8.36% (inactive)
 5  Cc1cc(N2C(=O)C(=O)/C(=C(/O)c3ccc(F)cc3)C2c2cccc(Br)c2)no1 (stereo unspecified)              -7.98% (inactive)
 6          CCc1ccc(-c2cn3nc(C)c(C)nc3n2)cc1              0.521% (inactive)
 7  C[C@@]12CCC(=O)C=C1CC[C@@H]1[C@@H]2[C@H](O)C[C@]2(C)[C@@H]1CC[C@]2(O)C(=O)COC(=O)CCC(=O)O  -0.329% [at 38 µM] (inactive)
 8  CCN(CC)C(=O)CN(C#N)c1nc(NC(C)C)nc(NC(C)C)n1               4.86% (inactive)
 9                         CSc1nncc(=O)[nH]1               16.2% (inactive)
10  COCCN(CCOC)C(=O)C12CCC(C)(C(=O)C1)C2(C)C (stereo unspecified)               9.52% (inactive)
11  O=C(C[N+]12CN3CN(CN(C3)C1)C2)c1ccc(-c2ccccc2)cc1  8.23% [at 7.69 µM] (inactive)

----------
# System: SC27B
# TEST NAME: qHTS profiling for inhibitors of Plasmodium falciparum proliferation (AID 504749); further: nearly all actives have a fitted effect of over 60% in size
# MEASUREMENT PARAMETERS: P. falciparum in erythrocytes, SYBR Green DNA, 72 h; series mostly up to 28.7 µM
Records with an inconclusive call do not appear. Calls of active or inactive are those of the source. Calls follow the shape of the dose curve; as a rule, active = well fitted inhibition curve with a large enough effect; inconclusive = small, poorly fitted or top-dose-only effect; inactive = flat fitted curve, though single readings scatter.
Outcomes: 1 = active, 0 = inactive

COMPOUND	CLASS LABEL
CC(C)(C)NC[C@H](O)CSc1nc(-c2ccc(C(N)=O)s2)cs1	0
C/C=C\C[C@H](C)[C@H](O)[C@H]1C(=O)N[C@@H](CC)C(=O)N(C)CC(=O)N(C)[C@@H](CC(C)C)C(=O)N[C@@H](C(C)C)C(=O)N(C)[C@@H](CC(C)C)C(=O)N[C@@H](C)C(=O)N[C@@H](C)C(=O)N(C)[C@@H](CC(C)C)C(=O)N(C)[C@@H](CC(C)C)C(=O)N(C)[C@@H](C(C)C)C(=O)N1C	1
CC[C@@]1(O)CC2CN(CCc3c([nH]c4ccccc34)[C@](C(=O)OC)(c3cc4c(cc3OC)N(C)C3[C@@](O)(C(=O)OC)C(OC(C)=O)[C@]5(CC)C=CCN6CC[C@@]43C65)C2)C1 (some centres undefined)	1
C[C@@H]1CCN(C(=O)[C@H](CCCNC(=N)N)NS(=O)(=O)c2cccc3c2NC[C@H](C)C3)[C@@H](C(=O)O)C1	0
CC1(C)OC[C@@H]2O[C@@]3(C(=O)O)OC(C)(C)O[C@@H]3[C@@H]2O1	0
CCCC(=O)O[C@]1(C(=O)COC(C)=O)CC[C@H]2C3C[C@H](F)C4=CC(=O)C=CC4(C)[C@@]3(F)[C@@H](O)CC21C (some centres undefined)	0
CO[C@H]1C[C@@H]2CC[C@@H](C)[C@@](O)(O2)C(=O)C(=O)N2CCCC[C@H]2C(=O)O[C@H]([C@H](C)C[C@@H]2CC[C@@H](O)[C@H](OC)C2)CC(=O)[C@H](C)/C=C(\C)[C@@H](O)[C@@H](OC)C(=O)[C@H](C)C[C@H](C)/C=C/C=C/C=C/1C	1
Nc1nc(Cl)nc2c1ncn2[C@@H]1O[C@H](CO)[C@H](O)C1F (some centres undefined)	0
O=C(NC(CO)C(O)c1ccc([N+](=O)[O-])cc1)C(Cl)Cl (centres undefined)	0
Cc1cn([C@H]2CC(F)[C@@H](CO)O2)c(=O)[nH]c1=O (some centres undefined)	0
COc1cccc(OC)c1C(=O)NC1C(=O)N2C1SC(C)(C)C2C(=O)O (centres undefined)	0
CCC(=O)OC1C(N(C)C)CC(C)O[C@H]1O[C@H]1[C@H](C)[C@@H](O[C@H]2CC(OC)[C@@H](O)C(C)O2)[C@H](C)C(=O)O[C@@H](CC)[C@](C)(O)[C@@H](O)[C@H](C)C(=O)[C@@H](C)C[C@]1(C)O (some centres undefined)	0
CO/N=C(/C(=O)N[C@@H]1C(=O)N2C(C(=O)O)=C(CSc3nnnn3C)CS[C@H]12)c1csc(N)n1	0
C[C@]12CCC(=O)C=C1[C@@H]1C[C@H]1[C@H]1[C@@H]3[C@@H]4C[C@H]4[C@@]4(CCC(=O)O4)[C@@]3(C)CC[C@@H]12	0

----------
# System: P94_40
# TEST NAME: qHTS profiling for inhibitors of Plasmodium falciparum proliferation (AID 504749); further: nearly all actives have a fitted effect of over 60% in size
# MEASUREMENT PARAMETERS: P. falciparum in erythrocytes, SYBR Green DNA, 72 h; series mostly up to 28.7 µM
Inconclusive results are not listed. The source made the active and inactive calls. The call rests on the fitted dose curve; in most records, active means well fitted inhibition curve with a large enough effect; inconclusive means small, poorly fitted or top-dose-only effect; inactive means flat fitted curve, though single readings scatter.
Outcomes: active, inactive

COMPOUND	CLASS LABEL
CC(C)C[C@@H](NC(=O)[C@@H](Cc1ccccc1)NC(=O)c1cnccn1)B(O)O	active
CC(=O)N[C@H]1[C@H](O[C@@H]2c3ccc(c(Cl)c3)Oc3cc4cc(c3O[C@@H]3O[C@H](CO)[C@@H](O)[C@H](O)C3C)Oc3ccc(cc3Cl)C[C@H]3NC(=O)[C@@H](N)c5ccc(O)c(c5)Oc5cc(O)cc(c5)[C@H](NC3=O)C(=O)N[C@H]4C(=O)N[C@H]3C(=O)N[C@@H]2C(=O)N[C@@H](C(=O)O)c2cc(O)cc(O[C@H]4O[C@H](CO)[C@@H](O)C(O)[C@@H]4O)c2-c2cc3ccc2O)O[C@H](CO)[C@@H](O)[C@@H]1O (some centres not stated)	inactive
Cc1ccc(Nc2ncccc2C(=O)O)cc1C	inactive
C[C@]12CC[C@@H]3c4ccc(O)cc4CC[C@H]3[C@@H]1CCC2OC(=O)CCC1CCCC1 (some centres not stated)	inactive
OCC1O[C@H](Oc2ccc(O)cc2)C(O)C(O)C1O (some centres not stated)	inactive
Cc1cnc(NC(=O)C2C(=O)c3ccccc3S(=O)(=O)N2C)s1 (configuration not stated)	inactive
CC1=C(c2ccc(NN=C(C#N)C#N)cc2)NNC(=O)C1	inactive
